Target Of Assay: rat Peripheral-type Benzodiazepine Receptor (PBR), Tspo (gene 24230) (UniProt P16257)
Sequence (P16257 whole entry, looked up): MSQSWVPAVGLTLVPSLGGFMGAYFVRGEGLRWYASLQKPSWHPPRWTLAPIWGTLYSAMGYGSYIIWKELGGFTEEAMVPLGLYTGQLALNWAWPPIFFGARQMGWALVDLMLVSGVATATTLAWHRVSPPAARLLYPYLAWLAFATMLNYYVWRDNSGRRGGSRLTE
Measurement Protocol: NVS_MP_rPBR: NovaScreen (NVS) Membrane Protein Assay for rat Peripheral-type Benzodiazepine Receptor (PBR) (AID 2283335)
Inconclusive results are not listed. Calls of active or inactive are those of the source. Rule for the calls: active = hit-call score of the fitted dose curve at least 0.9, where 1 is the maximum; inconclusive = response in the unintended direction; inactive = score below 0.9.
Your answer must be one of the following: true = active, false = inactive

Compound: CCN(CC)c1ccc2c(-c3ccccc3C(=O)O)c3ccc(=[N+](CC)CC)cc-3oc2c1
Answer Label: true

Compound: C=CCOc1nc(OCC=C)nc(OCC=C)n1
Answer Label: true

Compound: O=C(Oc1ccccc1)c1ccc(O)cc1
Answer Label: true

Compound: CCCCCCCCCCC(CO)CCCCCCCC (stereo not given)
Answer Label: false

query: State the result this test recorded for `COc1cc2ncnc(Nc3cccc(Cl)c3)c2cc1OC` .
result: false

----------
Read-out: Interleukin-1 alpha (IL1a), IL1A (gene 3552)
Measurement Protocol: BSK_LPS_IL1a: BioMAP Diversity Plus: LPS Assay for Interleukin-1 alpha (IL1a) Biomarker Activity (AID 2283080)
Test Conditions: primary human HUVEC with PBMC; actives raise or lower the signal
Calls of active or inactive are those of the source. The calls were made as follows: active = hit-call score of the fitted dose curve at least 0.9, where 1 is the maximum; inactive = score below 0.9.
// allowed return values: true for active, false for inactive

Smiles String: O=C(O)c1cn(-c2ccc(F)cc2)c2cc(N3CCNCC3)c(F)cc2c1=O
Answer Label: false

query: Identify the outcome logged in this assay for the compound shown: `CCCCC/C=C/C=C/C=O`
result: true

query: Check the results log: what was the call for `Cc1ccc2n[nH]nc2c1` ?
result: false

query: GET /call?item= `c1ccc2sc(SN(C3CCCCC3)C3CCCCC3)nc2c1` returns the recorded outcome of this test.
result: false

----------
Measurement Protocol: ACEA_AR_agonist_AUC_viability: ACEA Biosciences xCELLigence Real-Time Cell Analysis on Androgen Receptor Agonism for Viability (AID 2283775)
Results filed as inconclusive are left out. Activity calls are given as the source filed them. Rule for the calls: active = hit-call score of the fitted dose curve at least 0.9, where 1 is the maximum; inconclusive = response in the unintended direction; inactive = score below 0.9.
Outcomes you can answer with include only these: TRUE (active), FALSE (inactive)

These recorded examples may help you get a feel for the data.
Compound: NC(=O)Nc1ccc(Cl)cc1
Answer Label: FALSE

Compound: OCCOCCOCCOCCO
Answer Label: FALSE

Here's the next entry for you.
query: Lab log entry: BrC1CCC(Br)C(Br)CCC(Br)C(Br)CCC1Br (stereo not drawn) — outcome as called in the assay?
result: FALSE

----------
Measurement Protocol: ATG_M_19_TRANS: Attagene TRANS-FACTORIAL HepG2 Assay for M19 Transcription Factor (Internal Marker) (AID 2282974)
Test Conditions: HepG2 Attagene TRANS-FACTORIAL M19 internal marker reporter
Inconclusive results are not listed. Activity calls are given as the source filed them. Rule for the calls: active = hit-call score of the fitted dose curve at least 0.9, where 1 is the maximum; inconclusive = response in the unintended direction; inactive = score below 0.9.
Measured Metric: outcome

Compound: O=C1CCCCCCCCCCOCCCCO1
Recorded Result: inactive
//
Compound: CC(C)c1ccc(C(C)C)cc1
Recorded Result: inactive
//
Compound: CCCCCCCCCCCCN
Recorded Result: inactive
//
Compound: CN1Cc2c(N)cccc2C(c2ccccc2)C1 (stereo not given)
Recorded Result: inactive
//
Compound: Nc1cc(N)cc(C(=O)O)c1
Recorded Result: inactive
//
Compound: CC1CC(OC(=O)c2ccccc2O)CC(C)(C)C1 (stereo not given)
Recorded Result: inactive
//
Compound: CCC(C)(O)CCC=C(C)C (stereo not given)
Recorded Result: inactive
//
Compound: CCC(O)CO (stereo not given)
Recorded Result: inactive

Please state outcome for every compound in the list that follows.
1. CC1COc2ccccc2N1C(=O)C(Cl)Cl (stereo not given)
2. CCCCCCOC(=O)CC
3. CN(C)c1ccc(O)c2c1C[C@H]1C[C@H]3[C@H](N(C)C)C(=O)C(C(N)=O)=C(O)[C@@]3(O)C(=O)C1=C2O
4. Cc1ccccc1C=O
5. CC(CN1c2ccccc2Sc2ccccc21)N(C)C (stereo not given)
6. CCC/C=C/C=O
7. CN(C)CCOCCN(C)C

result:
inactive
inactive
inactive
inactive
inactive
inactive
inactive

----------
Read-out: Collagen IV, COL4A1 (gene 1282)
Measurement Protocol: BSK_MyoF_CollagenIV: BioMAP Diversity Plus: MyoF Assay for Collagen IV Biomarker Activity (AID 2284247)
Test Conditions: primary human lung fibroblasts
Description: BSK_MyoF is a cell-based, multiplexed-readout assay that uses lung fibroblasts, […], with measurements taken at 24 hours after chemical dosing in a microplate: 96-well plate.BSK_MyoF_CollagenIV is an assay component measured in the BSK_MyoF assay. […] The levels of cell surface (or secreted, indicated by the prefix "s") biomarker endpoints were measured by ELISA. […] Plates were read after 6 h.
The source made the active and inactive calls. Rule for the calls: active = hit-call score of the fitted dose curve at least 0.9, where 1 is the maximum; inactive = score below 0.9.
Please reply with one of these outcomes: active, inactive

query: What was the test verdict on CCCCC(CC)COCCC#N (centres undefined) ?
result: inactive

query: Hey, what did the test say about CC1CCC(C(C)CS)CC1S (centres undefined) ?
result: active

query: Would you mind telling me which call this test gave `O=C(O)c1cn(-c2ccc(F)cc2)c2cc(N3CCNCC3)c(F)cc2c1=O` ?
result: inactive

query: What was the test verdict on `O=C1CCCCCCCCCCCCCCO1` ?
result: inactive

----------
Read-out: Monocyte Chemoattractant Protein-1 (MCP1), CCL2 (gene 6347)
Measurement Protocol: BSK_CASM3C_MCP1: BioMAP Diversity Plus: CASM3C Assay for Monocyte Chemoattractant Protein-1 (MCP1) Biomarker Activity (AID 2283046);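 note: MCP-1 level quantified by ELISA 24 h after dosing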
Test Conditions: primary human coronary artery smooth muscle cells; actives raise or lower the signal
The source made the active and inactive calls. How the source made its calls: active means hit-call score of the fitted dose curve at least 0.9, where 1 is the maximum; inactive means score below 0.9.
Result category, one only: active, inactive

As a guide, the following entries are already answered.
Compound: O=C(O)c1cn(-c2ccc(F)cc2)c2cc(N3CCNCC3)c(F)cc2c1=O
Answer Label: inactive
//
Compound: c1ccc2c(c1)c1cccc3ccc4cccc2c4c31
Answer Label: inactive
//
Compound: C=C(C)C(=O)O[C@H]1C[C@@H]2CC[C@@]1(C)C2(C)C
Answer Label: active
//
Compound: O=C1OC2(c3cc(Br)c(O)c(Br)c3Oc3c2cc(Br)c(O)c3Br)c2c(Cl)c(Cl)c(Cl)c(Cl)c21
Answer Label: active
//
Compound: O=C=NC1CCC(CC2CCC(N=C=O)CC2)CC1 (configuration not stated)
Answer Label: inactive
//
Compound: BrC1CCC(Br)C(Br)CCC(Br)C(Br)CCC1Br (configuration not stated)
Answer Label: inactive
//
Compound: Cc1ccc(Nc2ccc(O)c3c2C(=O)c2ccccc2C3=O)cc1
Answer Label: inactive
//
Compound: O=C(O)c1ccc([N+](=O)[O-])cc1
Answer Label: inactive
//
Compound: Nc1cc([N+](=O)[O-])ccc1Cl
Answer Label: inactive
//
Compound: C=CCOC(=O)CCC1CCCCC1
Answer Label: inactive

query: # outcome recorded in this test, key = CC1COc2ccccc2N1C(=O)C(Cl)Cl (configuration not stated)
result: inactive

query: Can you look up the reported call for `CCCCC/C=C/C=C/C=O` for me?
result: active

----------
Measurement Protocol: BSK_3C_Vis: BioMAP Diversity Plus: 3C Assay for Morphology Visualization (AID 2283025);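 note: fitted both ways so gain or loss versus DMSO counts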;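 for AC50: light microscopy image of cell morphology used as background control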
Test Conditions: primary human endothelial cells (HUVEC)
Calls of active or inactive are those of the source. How the source made its calls: active means hit-call score of the fitted dose curve at least 0.9, where 1 is the maximum; inactive means score below 0.9.
Measured Metric: AC50

Compound: CN(CCOc1ccc(CC2SC(=O)NC2=O)cc1)c1ccccn1 (stereo unspecified)
AC50: inactive
--
Compound: CC(=O)Nc1ccccc1O
AC50: inactive
--
Compound: O=C1OC2(c3cc(Br)c(O)c(Br)c3Oc3c2cc(Br)c(O)c3Br)c2c(Cl)c(Cl)c(Cl)c(Cl)c21
AC50: 8.63 µM (active)
--
Compound: CCc1c(C)cc(N)c(CC)c1N
AC50: inactive

Can you give me AC50 for all of these, one by one?
1. O=[N+]([O-])c1cc(C(F)(F)F)ccc1Cl
2. CCCCC/C=C/C=C/C=O
3. O=C(O)c1cn(C2CC2)c2cc(N3CCNCC3)c(F)cc2c1=O
4. O=C(O)c1ccc([N+](=O)[O-])cc1

result:
1: inactive; 2: 37.4 µM (active); 3: inactive; 4: inactive

----------
Read-out: Pselectin, SELP (gene 6403)
Measurement Protocol: BSK_4H_Pselectin: BioMAP Diversity Plus: 4H Assay for Pselectin Biomarker Activity (AID 2283026)
Test Conditions: primary human endothelial cells (HUVEC); actives raise or lower the signal
Calls of active or inactive are those of the source. Rule for the calls: active = hit-call score of the fitted dose curve at least 0.9, where 1 is the maximum; inactive = score below 0.9.
Measured Metric: AC50

Compound: CC(=O)OCCC(C)CC(C)(C)C (stereo not given)
AC50: inactive
--
Compound: Cc1ccc(O)c(C(C)(C)C)c1
AC50: 34.3 µM (active)
--
Compound: CCCCC(CC)COCCC#N (stereo not given)
AC50: inactive
--
Compound: C[C@H]1C[C@@H]2[C@H]([C@@H](O)C[C@@]3(C)[C@H]2CC[C@]3(O)C(=O)CO)[C@@]2(C)C=CC(=O)C=C12
AC50: inactive
--
Compound: Cc1ccc2n[nH]nc2c1
AC50: inactive

Hello, I would appreciate it if you could give AC50 for each entry below.
1. CC1CCC(C(C)CS)CC1S (stereo not given)
2. CCCCCCCCCC=O
3. O=C(O)C[C@H](O)C[C@H](O)/C=C/c1c(C2CC2)nc2ccccc2c1-c1ccc(F)cc1

result:
23.9 µM (active)
inactive
0.152 µM (active)
